tested on: PPARg:RXRa (NR concentration 180 nM, RXRa partner concentration 90 nM); experiment: PBM binding z-score (relative to random genomic background probes); higher = stronger binding; sequences stand for … in GC…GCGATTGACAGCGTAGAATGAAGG
Is PBM binding z-score at least 1? Then true (1). If not, false (0).

Tell me whether PBM binding z-score is at least 1 here: TGAATGACGTTATAAGATCAGGGAACGTTGCAAA
false (0)

Please check the record CGTCCAAGGGCATAGGAGGTCAGTGAAGACAGAT and state if its PBM binding z-score is at or above 1.
true (1)

Reported PBM binding z-score at or above 1? TGAATGAGGTTATAAGATAAGGGAACGTTGCAAA
true (1)

Does CAAACTAGGTCACAGAGGTCAAATTCCGTGCGTA have a reported PBM binding z-score of at least 1?
true (1)

hey, is PBM binding z-score for this one >= 1? ATATGTAGTTTACATCCGGGTCATTCAGGCTATG
true (1)

Answer whether PBM binding z-score of ATCTCTAGGTAAAAGTTCAGTCAATCCCGAGGAT is greater than or equal to 1.
true (1)

---

Please provide measured PBM binding z-score for the entries that follow.
tested on: VDR:RXRa (NR concentration 270 nM, RXRa partner concentration 90 nM); assay: PBM binding z-score (relative to random genomic background probes); higher = stronger binding; sequences stand for … in GC…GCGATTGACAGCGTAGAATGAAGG

Given the sequence AATACAGGGTCATCGTAGGCCAGAGGACGCACAG , what is its reported PBM binding z-score?
5.19

Using the record for CGTCCAACGTCAATGCTAGGTCAGTGAAAGCATT , report its PBM binding z-score.
0.103

Please report the recorded PBM binding z-score for CAGACTAGGTCAAGAGGTCAAAGTCCGCTTCCCG .
5.97

Bench note: what PBM binding z-score did ATCGATAGGTCGACGAGGTGAGTATACACCGTTT show?
2.96

Which measured PBM binding z-score value corresponds to CGAACGAGGGCATGAGCTGATAGCAAATGCCGAT ?
0.355

// returns reported PBM binding z-score for input ATATGTAGGTTATCGGGTCATTAAGTTTGCGCAT
6.04

Would you kindly share the measured PBM binding z-score for TAGCCTAGGTCATTCAGGGGACAGTATAGAAAGC ?
3.56

Name the recorded PBM binding z-score for ATCTCTAGGTAAAAGTTCAGTGTATCCCGAGGAT .
1.56

Entry under review: TATAGCAGGCCAGAGGGTCACTCAAGAGGTACGG . Reported PBM binding z-score?
1.58

I have this sequence here, CCGACTGGGACATAAGGTTACCATAAGCCAGCCC , and I need its recorded PBM binding z-score.
0.181

Would you mind telling me what PBM binding z-score value was observed for TCATATAGGTAAATGCTAGGTAAAAGTCCGATCT ?
0.968

Find the recorded PBM binding z-score belonging to GCTATTAGTTGAAAGGGCAACCGTATGATTCTCG and report it.
0.653

---

system: LXRb homodimer (NR concentration 270 nM); test: PBM binding z-score (relative to random genomic background probes); higher = stronger binding; sequences stand for … in GC…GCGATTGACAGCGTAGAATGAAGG
test readout: PBM binding z-score
Please reply with the number alone, leaving off any unit.

Given the entry CGTCAAAGTTGAAGGTAACGTAACAGAAAGCAGC , report its measured PBM binding z-score.
-0.458

Given the sequence CCTACTGGGCCAAAGGTCATTCATTCCAATGCTC , what is its reported PBM binding z-score?
1.33

So what's the measured PBM binding z-score for this one? CCTTACGGGTCAAGGTTATAGCGCGGGTGGTACG
0.134

Name the reported PBM binding z-score value associated with the sequence TCTCGTAGATCAAGCAGGTTAAGAAAGCCTGAGT
-1.19

Which PBM binding z-score is listed for AGTCAAAGTTCACTAGGTAACCTAAGATTCAGCT ?
1.13

# get_value(readout='PBM binding z-score', item= ATACCAAGGTGGTCGTGAGGTCGTTGATACTAAC )
-0.378

// data source = the supplement of paper PMC6555819
